Reference source for all entries: ChEMBL document CHEMBL5303304

Test system: HEK-293T
Assay: Incucyte cell viability with HEK293T; also: unitless GR value; below 1 slowed growth and below 0 cell loss
Type: toxicity, cell-based
Details: human, 12 h, 10 µM, compound concentration 10 uM, replicate number 2
Classification field. Basis: Growth Rate. Definitions: low end: < 0.4; middle: ≥ 0.4 and < 0.7; high end: ≥ 0.7

Task item: Band assignment needed for N[C@H](C(=O)O)[C@@H]1CC(Cl)=NO1 [ACIVICIN] please.
Reply: middle

Task item: And for Cc1[nH]nc(C(F)(F)F)c1Cc1sc2c(c1C(=O)N1C[C@](C)(O)CO1)c(=O)n(C)c(=O)n2C(C)C [AZD3965] ?
Reply: middle

Task item: How about COc1ccc(OC(=O)N(CC(=O)O)Cc2ccc(OCCc3nc(-c4ccccc4)oc3C)cc2)cc1 [MURAGLITAZAR] ?
Reply: middle

Task item: And the next one, CN(C)C/C=C/C(=O)Nc1cccc(C(=O)Nc2ccc(Nc3nccc(-c4cccnc4)n3)cc2)c1 ?
Reply: low end

Task item: Try this molecule next: O=C(O)c1ccc(S(=O)(=O)N(Cc2ccc(OC(F)(F)F)cc2)c2ncc(C(F)(F)F)cc2Cl)cc1
Reply: high end

Task item: Proceed to Clc1ccc(-c2nc3sccn3c2/C=N/OCc2ccc(Cl)c(Cl)c2)cc1
Reply: high end

Task item: What about this molecule? Cc1ccccc1Oc1cc(-n2c(=O)cc(C(F)(F)F)[nH]c2=O)c2ccccc2c1Cl [BAY-069]
Reply: low end

Task item: Now this one: CSc1nc2c(c(=O)n(C)c(=O)n2C)n1C
Reply: high end

====

Reported Growth Rate values for the following molecules.
System: Fibroblast
Test: Incucyte cell viability with human fibroblast; also: unitless GR value; below 1 slowed growth and below 0 cell loss
Format: toxicity, cell-based
Details: 18 h, 10 µM, compound concentration 10 uM, replicate number 1
// keep it numeric: no unit symbol after the value

Previously resolved entries follow.
O=C(Nc1ccc(OC(F)(F)Cl)cc1)c1cnc(N2CC[C@@H](O)C2)c(-c2ccn[nH]2)c1 ... 0.17
C=CC(=O)Nc1ccc(C(=O)Nc2n[nH]c3c2CN(C(=O)N[C@H](CN(C)C)c2ccccc2)C3(C)C)cc1 ... 0.18
C[C@H](CCC(=O)O)[C@H]1CC[C@H]2[C@@H]3[C@H](O)C[C@@H]4C[C@H](O)CC[C@]4(C)[C@H]3C[C@H](O)[C@]12C ... 0.38

Task item: Hi! What's the reported Growth Rate for CCN(c1ccccc1)c1cc(NC)[n+](C)c(C)n1.[Cl-] on Fibroblast?
Reply: -0.22

Task item: Okay, and Cl.O=C(O)CCCN1CCC[C@H]1COc1ccc(Oc2ccc(Cl)cc2)cc1 ?
Reply: 0.87

Task item: Thanks! And CCc1ncnc(N2CCN(C(C)=O)CC2)c1C#Cc1ccc(N)nc1.Cl.Cl ?
Reply: 0.66

Task item: Now try COc1ccccc1-c1cc(Nc2cccc(CS(N)(=O)=O)c2)ncn1 .
Reply: 0.61

Task item: Can you handle CCOC(=O)N1CCC(CN(Cc2ccc(Cl)cc2)Cc2ccc([N+](=O)[O-])s2)C1 (stereo not drawn) next?
Reply: 0.3

====

Below is a list of entries, each paired with its recorded Growth Rate value.
System: Fibroblast
Test: Incucyte cell viability with human fibroblast; also: unitless GR value; below 1 slowed growth and below 0 cell loss
Format: toxicity, cell-based
Conditions: 24 h, 10 µM, compound concentration 10 uM, replicate number 1
Respond with the number and no other words.

Below, each entry is followed by its recorded Growth Rate result.
O=C(O)[C@]1(Cc2cccc(Nc3nccs3)n2)CC[C@@H](Oc2cccc(Cl)c2F)CC1 [MK-5108] ... 0.32
CC1CCN(c2ccnc(NCc3cn(C)cn3)n2)CC1 [TP-040] ... 0.65
Cc1cc2nc(N3CCC(C(=O)NC4CCCC4)CC3)n(C(C)C)c2cc1C ... 0.4
CCCCC/C=C/C=C1/C(=O)C=C[C@@H]1C/C=C\CCCC(=O)O ... 0.72
O=C(O)c1ccc(S(=O)(=O)N(Cc2ccc(OC(F)(F)F)cc2)c2ncc(C(F)(F)F)cc2Cl)cc1 ... 0.93
C[C@@]1(Cc2ccc(C#N)cc2)C(=O)N(c2cc(Cl)cc(Cl)c2)c2ncc(C(=O)NC3(c4nc(C5CCC5)no4)CC3)n21 [BI 9446] ... 0.4
Oc1c(CN2CCCC2)cc(COCc2ccccc2)c2cccnc12 ... 0.83
O=C(O)Cc1ccc(CCNS(=O)(=O)c2ccc(Cl)cc2)cc1 [DALTROBAN] ... 0.99

Task item: What Growth Rate appears in the records for this compound with Fibroblast? Oc1cccc(Nc2ccnc3[nH]c4ccccc4c23)c1
Reply: 0.48

Task item: Input CC(F)(F)CN1C(=O)c2[nH]nc(-c3cccc4[nH]c(=O)oc34)c2C1c1ccc(Oc2cc(C(F)(F)F)cc(C(F)(F)F)c2)cc1 (stereo unspecified)
Reply: 0.96

Task item: Same thing, different compound: CNc1nc(-c2cc(C(=O)N3CCN(Cc4ccc(Cl)cc4)CC3)c(Cl)cn2)cs1
Reply: 0.23

Task item: # repeat for Nc1ncnc2c1c(I)cn2[C@@H]1O[C@H](CO)[C@@H](O)[C@H]1O [IODOTUBERCIDIN]
Reply: 0.53

Task item: Again, but for COc1ccccc1S(=O)(=O)Nc1ccc2c(c1)CN(C)C(=O)N2
Reply: 0.79

Task item: What about CCOc1ccccc1C(=O)NCC1(N2CCN(CC)CC2)CCCCC1 ?
Reply: 0.45

Task item: Another compound: O=C(Nc1cccc(C(F)(F)F)c1)c1cccc(-n2cc(-c3ccco3)nn2)c1
Reply: 0.97

Task item: Another compound: CCCOc1cnc(CN/C=C2\C(=O)NC(=O)c3ccc(I)cc32)cc1O
Reply: 0.11

====

Each entry below carries its reported Growth Rate.
Test system: HEK-293T
Assay: Incucyte cell viability with HEK293T; also: unitless GR value; below 1 slowed growth and below 0 cell loss
Format: toxicity, cell-based
Conditions: human, 12 h, 10 µM, compound concentration 10 uM, replicate number 2
When you answer, write just the number.

CNCc1ccc(-c2cc(-c3nc(-c4ccc(S(=O)(=O)C(C)C)cc4)cnc3N)on2)cc1 [BERZOSERTIB] ... -0.51
COCCNc1cc(NC(=O)N2CCCc3cc(CN4CCN(C)CC4=O)c(C=O)nc32)ncc1C#N [FGF401] ... 0.82
CC(C)(C)c1cnc(CSc2cnc(NC(=O)C3CCNCC3)s2)o1 [BMS-387032] ... -0.64

Task item: GET /values?readout=Growth Rate&item= CN1CCC[C@H]1c1cccnc1 [NICOTINE]
Reply: 0.75

Task item: Do the same for O=C(Nc1cc(C(F)(F)F)cc(C(F)(F)F)c1)c1cc(Cl)ccc1O [IMD-0354] please
Reply: -0.2

Task item: Please answer likewise for S=c1[nH]nc(-c2cccs2)n1-c1ccccc1
Reply: 0.73

Task item: What do we get for O=C1COc2cc(C(=O)N(Cc3ccc(C(=O)Nc4ccncn4)cc3)C3CC3)ccc2N1 ?
Reply: 0.42

Task item: What do you have for CCS(=O)(=O)Nc1cccc(Oc2cncc(Nc3ccc(I)cc3F)c2C(N)=O)c1 ?
Reply: 0.71

Task item: CC1=C(C(=O)OCCO)[C@@H](c2ccc(C#N)cc2)NC(=O)N1c1cccc(C(F)(F)F)c1 , same question.
Reply: 0.75

====

Tested on: Fibroblast
Assay: Incucyte cell viability with human fibroblast; also: unitless GR value; below 1 slowed growth and below 0 cell loss
Assay type: toxicity, cell-based
Conditions: 12 h, 10 µM, compound concentration 10 uM, replicate number 2
measurement.name: Growth Rate

Solved entries:
COc1ccc(CSc2nnc(-c3ccc4ncsc4c3)o2)cc1C(F)(F)F ... 0.64
Cn1c(C2(NC(=O)c3ccc(NCC4CCCCC4)nc3)CCC2)nc2ccc(/C=C/C(=O)O)cc21 [BI 7656] ... 0.82
Cl.Cl.NC1(c2ccc(-c3nc4ccn5c(=O)[nH]nc5c4cc3-c3ccccc3)cc2)CCC1 ... -0.83
COc1cc(C)c(S(=O)(=O)N(C)CCOCC(=O)N(C)[C@H]2CCC[C@@H](N3CCN(C)CC3)C2)c(C)c1.O=C(O)C(O)C(O)C(=O)O ... 0.57

Task item: # get_value(readout='Growth Rate', item= COc1ccc(S(=O)(=O)N2CCOCC2)cc1Nc1ccc2c(n1)N(C1CCOCC1)[C@H](C)C(=O)N2C )
Reply: 0.55

Task item: Next: O=C1NCc2ccc3c(-c4cccc(Cl)c4)c[nH]c3c21
Reply: -0.89

Task item: And what about the compound Cn1cc(-c2ccc3occ(-c4cccc(-c5ccncc5)c4)c3n2)cn1 ?
Reply: 0.4

Task item: Entry CS(=O)(=O)CCNCc1ccc(-c2ccc3ncnc(Nc4ccc(OCc5cccc(F)c5)c(Cl)c4)c3c2)o1 [LAPATINIB] please
Reply: 0.65

Task item: Also Br.CO[C@H]1CC=C2CCN3CCC4=C(CC(=O)OC4)[C@]23C1 , if possible.
Reply: 0.64

====

Tested on: U2OS
Assay: Incucyte cell viability with U2OS; also: unitless GR value; below 1 slowed growth and below 0 cell loss
Assay type: toxicity, cell-based
Conditions: human, 6 h, 10 µM, compound concentration 10 uM, replicate number 1
measurement.name: Growth Rate
Reply: number alone, nothing else.

Answered examples (2):
COC(=O)c1ccc2c(c1)NC(=O)/C2=C(\Nc1ccc(-c2nccn2C)cc1)c1ccccc1 ... 0.57
C=C(F)C(=O)N1CCN(c2nc(OC[C@@H]3CCCN3C)nc3c2CCN(c2cccc4cccc(Cl)c24)C3)C[C@@H]1CC#N ... -0.94

Task item: Given the molecule CC(C)(C)c1cc(NC(=O)c2csc(Nc3ccccn3)n2)no1 , what is its reported Growth Rate?
Reply: 0.51

Task item: Now give it for c1ccc(Cn2c(N3CCNCC3)nc3ccccc32)cc1 too.
Reply: 0.7

Task item: Entry Cn1cnc(Cn2ccc3ccc(CNCc4[nH]c5ccccc5c4[C@H]4NC(=O)c5ccc(O)cc54)cc32)c1 please
Reply: 0.88
